# test_target: T1, MBP-fused PDZ domain 1 of PARD3B (human, UniProt Q8TEW8 201-289)
# T1 sequence (looked up): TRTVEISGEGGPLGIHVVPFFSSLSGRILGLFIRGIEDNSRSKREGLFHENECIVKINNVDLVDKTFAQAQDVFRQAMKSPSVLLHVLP
# assay_procedure: holdup assay
pKd: −log10 of the molar value. Where no end group is shown, it is not given here. [ ]: non-standard residue; d: D form. The star is where a group is joined. Biotin = O=C1N[C@H]2[C@H](CS[C@H]2CCCCC(=O)*)N1; TTDS = NCCCOCCOCCOCCCNC(=O)CCC(=O)*; pS = N[C@@H](COP(=O)(O)O)C(=O)O
Catalogue of binders with associated pKd
measured_parameter: pKd

[
  {
    "binder": "{Biotin-TTDS}-RRVRKLPSTTL (peptide, UniProt Q15418 725-735, looked up) [biotinylated RSK1 725-735 peptide, unphosphorylated]",
    "reported_result": 4.86
  },
  {
    "binder": "{Biotin-TTDS}-RRVRKLP[pS]TTL (peptide, UniProt Q15418 725-735, looked up) [biotinylated RSK1 725-735 peptide, phosphorylated at Ser732 (position -3)]",
    "reported_result": 4.45
  }
]
